system_under_test: UniProt:Q9WUD2
protocol_details: Antagonist activity at recombinant rat TRPV2 expressed in HEK293 cells assessed as inhibition of LPC-induced Ca2+ levels preincubated for 5 mins followed by agonist addition by Fuo-4-AM based spectrofluorimetry
Type: cell-based
// values below are reported IC50

Worked examples, 5 compounds total:
>>> result("CCCCCC[C@@H](O)C/C=C\\CCCCCCCC[Se]CCC(=O)NCc1ccc(O)c(OC)c1")
"> 10 µM"
>>> result("CCCCCCCCCCCCCCCCCCCC(=O)O [ARACHIDIC ACID]")
"> 10 µM"
>>> result("CCCCCCCC/C=C\\CCCCCCCCCCCC(=O)O [ERUCIC ACID]")
"> 10 µM"
>>> result("CCCCCCCCCCCCCCCCCC(N)=O [OCTADECANOIC ACID AMIDE]")
"> 10 µM"
>>> result("CCCCCCCCCCCCCCCC(=O)O [PALMITIC ACID]")
"> 10 µM"

Ask: Hi! What's the reported IC50 for CCCCCCCC/C=C\CCCCCCCC(=O)O [OLEIC ACID] on UniProt:Q9WUD2?
Reply: > 10 µM

Ask: // lookup IC50 | system=UniProt:Q9WUD2 | key= `CCCCCC[C@H](C/C=C\CCCCCCCC[Se]CCC(=O)NCc1ccc(O)c(OC)c1)OC(=O)Cc1ccccc1`
Reply: > 10 µM

Ask: Provide the documented IC50 with UniProt:Q9WUD2 as the system for `CCCCCCCCCCCCCCCCCCCC(N)=O`
Reply: > 10 µM

Ask: Hello, I am looking for reported IC50 with UniProt:Q9WUD2 for CCCCCCC(=O)CC(O)CCCCCCCCC(=O)NCc1ccc(O)c(OC)c1 (stereo not drawn) . Could you help?
Reply: > 10 µM

Ask: # value lookup — system UniProt:Q9WUD2, readout IC50, item `CCCCCCC(=O)C/C=C/CCCCCCCC(=O)NCc1ccc(O)c(OC)c1`
Reply: > 10 µM

Ask: // map `CC/C=C\C/C=C\C/C=C\C/C=C\C/C=C\C/C=C\CCC(=O)NCCO` to recorded IC50 (system: UniProt:Q9WUD2)
Reply: > 10 µM

Ask: Query the reported IC50 for UniProt:Q9WUD2; item: CCCCC/C=C\C/C=C\C/C=C\C/C=C\CCCC(=O)O [ARACHIDONIC ACID]
Reply: > 10 µM

Ask: Recorded IC50 for CCCCCCCCCCCCCCCC(=O)NCCO [PALMIDROL] with UniProt:Q9WUD2, please?
Reply: > 10 µM

Ask: Form entry - test system: UniProt:Q9WUD2; read-out: IC50; compound: `CCCCCCCC/C=C\CCCCCCCC[Se]CCC(=O)NCc1ccc(O)c(OC)c1`
Reply: 1.8 µM

Ask: API: value(readout=IC50, system=UniProt:Q9WUD2) for record CCCCCCCCCCCCCCCCCC(=O)NCCO [N-(2-HYDROXYETHYL)STEARAMIDE]
Reply: > 10 µM

Ask: Lab note: need IC50 for `CCCCC/C=C\C/C=C\CCCCCCCC(N)=O` on UniProt:Q9WUD2, anyone have it?
Reply: 2.2 µM

Ask: Form field: IC50 recorded for `CCCCCCCC/C=C\CCCCCCCCSC[C@H](N)C(=O)NCc1ccc(O)c(OC)c1` with UniProt:Q9WUD2 (enter value)
Reply: 1.9 µM

Ask: Give recorded IC50 with UniProt:Q9WUD2 for the following compound: `CCCCCCCCCCCCCCCCCC(=O)NCc1ccc(O)c(OC)c1`
Reply: > 10 µM

* * *

system_under_test: Transient receptor potential cation channel subfamily V member 2 (Rattus norvegicus, UniProt Q9WUD2)
Sequence (Q9WUD2 whole entry): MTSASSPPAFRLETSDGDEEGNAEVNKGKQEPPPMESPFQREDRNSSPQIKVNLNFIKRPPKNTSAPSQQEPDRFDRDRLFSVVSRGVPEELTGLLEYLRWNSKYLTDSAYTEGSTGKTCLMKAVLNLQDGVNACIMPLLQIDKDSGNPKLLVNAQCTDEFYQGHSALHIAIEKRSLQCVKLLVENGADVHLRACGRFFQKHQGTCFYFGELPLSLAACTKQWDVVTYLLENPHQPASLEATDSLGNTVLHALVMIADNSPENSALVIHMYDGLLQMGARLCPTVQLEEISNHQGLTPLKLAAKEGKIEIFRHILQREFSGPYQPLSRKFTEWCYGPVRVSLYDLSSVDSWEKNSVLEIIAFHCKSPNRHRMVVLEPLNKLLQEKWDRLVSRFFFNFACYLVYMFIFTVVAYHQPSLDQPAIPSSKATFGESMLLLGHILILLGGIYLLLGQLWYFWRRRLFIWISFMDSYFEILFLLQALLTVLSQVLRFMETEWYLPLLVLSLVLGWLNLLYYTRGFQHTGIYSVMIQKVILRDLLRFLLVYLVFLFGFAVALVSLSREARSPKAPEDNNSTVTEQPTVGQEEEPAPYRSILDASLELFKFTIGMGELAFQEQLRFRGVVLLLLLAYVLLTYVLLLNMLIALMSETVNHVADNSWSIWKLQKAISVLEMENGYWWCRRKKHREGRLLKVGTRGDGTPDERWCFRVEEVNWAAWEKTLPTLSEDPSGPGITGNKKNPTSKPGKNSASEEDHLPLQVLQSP
protocol_details: Antagonist activity at recombinant rat TRPV2 expressed in HEK293 cells assessed as inhibition of CBD-induced Ca2+ levels preincubated for 5 mins followed by agonist addition by Fuo-4-AM based spectrofluorimetry
Type: cell-based
pIC50: −log10 of the molar value.
parameter: pIC50

>>> result("CCCCCCCCCCCCCCCCCCCC(=O)O [ARACHIDIC ACID]")
"< 5.00"

Ask: Give the measured pIC50 of CCCCCCCC/C=C\CCCCCCCC(=O)O [OLEIC ACID] .
Reply: < 5.00

Ask: What does the record list as pIC50 for `CCCCCCCC/C=C\CCCCCCCCCCCC(=O)NCCO` ?
Reply: < 5.00
